Data credit: PubChem BioAssay AID651640

# protocolSummary: inhibitors of DENV2 cytopathic effect, primary screen, cell-based, plate reader, single concentration (AID 651640);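 also: 0% = median of neutral control wells and 100% = median of positive control wells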
# statedConditions: DENV2-infected cells, cytopathic effect rescue, at 9.99 µM, stronger effect = higher value
The campaign covered roughly 350,000 compounds. About 6,000 (1.7%) were called active. Inconclusive results (about 5%) are left out. For the sample, actives were picked, then their nearest neighbours and some compounds at random.
experimentalReadout: CPE inhibition (%)
Write it as a number; the unit % goes unstated.

- compound: "CN1c2ccc(-c3cccc(F)c3)cc2[C@@H]2[C@@H](CCN2C(=O)Nc2ccccc2F)[C@@H]1CO"
  measuredNumber: -9.74
- compound: "COCCNC(=O)C[C@H]1CC[C@@H]2[C@H](COc3ccc(NC(=O)Nc4cccc(F)c4)cc3C(=O)N2C)O1"
  measuredNumber: -0.175
- compound: "COc1ccc(S(=O)(=O)N(C)C[C@@H]2OCCCC[C@@H](C)Oc3ccc(NC(=O)CCCN(C)C)cc3C(=O)N([C@@H](C)CO)C[C@@H]2C)cc1"
  measuredNumber: 0.066
- compound: "COCC(=O)N1[C@H](C(=O)N2CCN(C)CC2)[C@@H](CO)[C@@H]2Cn3c(ccc(C4=CCCC4)c3=O)[C@@H]21"
  measuredNumber: -7.88
- compound: "CCC(=O)Nc1ccc2c(c1)C(=O)N(C)[C@@H]1CC[C@H](CC(=O)NCc3ccccc3)O[C@H]1CO2"
  measuredNumber: -3.19
- compound: "O=C(O)/C=C/c1cn(-c2ccccc2)nc1-c1cccs1"
  measuredNumber: 21.7
- compound: "COc1ccc(/C(C)=N/NC(=O)CCC(=O)Nc2ccc(Cl)cc2Cl)c(OC)c1"
  measuredNumber: -1.9

We now examine a further compound.
// returns reported CPE inhibition for input COc1cccc(CNC(=O)CCN2C(=S)NC(C)(C)CC2C)c1 (stereo not drawn)
8.33

###

# protocolSummary: inhibitors of DENV2 cytopathic effect, primary screen, cell-based, plate reader, single concentration (AID 651640);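 also: 0% = median of neutral control wells and 100% = median of positive control wells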
# statedConditions: DENV2-infected cells, cytopathic effect rescue, at 9.99 µM, stronger effect = higher value
Screen size: about 350,000 compounds; about 6,000 (1.7%) were called active. Another 5% or so got no clear call; they are omitted. The list comes from a sample in which actives are over-represented; it also holds close analogues and randomly drawn compounds.
experimentalReadout: CPE inhibition (%)
Expressed in %, but write only the number.

Please review the entries below; each comes with its answer.
- compound: "Cc1cccn2c(CNCC(C)Oc3cccnc3)c(C(=O)N3CCOCC3)nc12 (centres undefined)"
  unitDescriptor: "%"
  CPE inhibition: 5.69
- compound: "COc1ccc(S(=O)(=O)Nc2ccc3c(c2)C(=O)N([C@@H](C)CO)C[C@H](C)[C@H](CN(C)S(=O)(=O)c2c(C)noc2C)OCCCC[C@@H](C)O3)cc1"
  unitDescriptor: "%"
  CPE inhibition: 36
- compound: "COc1ccc(S(=O)(=O)N2C[C@@H](O)COC[C@H]3O[C@@H](CC(=O)NCCN4CCCCC4)CC[C@@H]32)cc1"
  unitDescriptor: "%"
  CPE inhibition: 2.39
- compound: "C[C@@H]1CN([C@@H](C)CO)C(=O)Cc2cc(NC(=O)Cc3ccccc3)ccc2O[C@H]1CN(C)Cc1ccc(C(=O)O)cc1"
  unitDescriptor: "%"
  CPE inhibition: -5.69
- compound: "CC(C)CC#Cc1ccc([C@@H]2[C@@H](CO)N3C(=O)CN(C(=O)c4cnccn4)C[C@@H]23)cc1"
  unitDescriptor: "%"
  CPE inhibition: -1.01

// returns reported CPE inhibition for input `C[C@H](CO)N1C[C@H](C)[C@@H](CN(C)C(=O)Nc2cccc3ccccc23)Oc2c(NS(=O)(=O)c3ccccc3)cccc2C1=O`
74.2

What CPE inhibition value was documented for this compound, `Cn1cnc(CCNC(=O)C[C@H]2CC[C@H]3[C@@H](COC[C@H](O)CN3C(=O)C3CCCC3)O2)c1` ?
-0.992

Please report the recorded CPE inhibition for `C[C@@H]1CN([C@H](C)CO)C(=O)c2cccc(NC(=O)C3CCCCC3)c2O[C@@H]1CN(C)C(=O)NC1CCCCC1` .
21.7

# CPE inhibition lookup, item `C[C@H]1CN([C@@H](C)CO)C(=O)c2cccc(NS(=O)(=O)c3ccc(F)cc3)c2O[C@@H]1CN(C)Cc1ccncc1`
0.612

I have this compound here, `CO[C@H]1CN(C)C(=O)c2cc(NC(=O)c3ccccc3)ccc2OC[C@H](C)NC[C@H]1C` , and I need its recorded CPE inhibition.
-12.8

Which measured CPE inhibition value corresponds to `O=C(C[C@H]1CC[C@H](NC(=O)C2CCC2)[C@@H](CO)O1)Nc1nccs1` ?
0.802
